- MEASUREMENT_TARGET: Epidermal growth factor receptor (Homo sapiens, UniProt P00533, L858R/T790M)
- Sequence (P00533 25-1210 T790M/L858R limits assumed): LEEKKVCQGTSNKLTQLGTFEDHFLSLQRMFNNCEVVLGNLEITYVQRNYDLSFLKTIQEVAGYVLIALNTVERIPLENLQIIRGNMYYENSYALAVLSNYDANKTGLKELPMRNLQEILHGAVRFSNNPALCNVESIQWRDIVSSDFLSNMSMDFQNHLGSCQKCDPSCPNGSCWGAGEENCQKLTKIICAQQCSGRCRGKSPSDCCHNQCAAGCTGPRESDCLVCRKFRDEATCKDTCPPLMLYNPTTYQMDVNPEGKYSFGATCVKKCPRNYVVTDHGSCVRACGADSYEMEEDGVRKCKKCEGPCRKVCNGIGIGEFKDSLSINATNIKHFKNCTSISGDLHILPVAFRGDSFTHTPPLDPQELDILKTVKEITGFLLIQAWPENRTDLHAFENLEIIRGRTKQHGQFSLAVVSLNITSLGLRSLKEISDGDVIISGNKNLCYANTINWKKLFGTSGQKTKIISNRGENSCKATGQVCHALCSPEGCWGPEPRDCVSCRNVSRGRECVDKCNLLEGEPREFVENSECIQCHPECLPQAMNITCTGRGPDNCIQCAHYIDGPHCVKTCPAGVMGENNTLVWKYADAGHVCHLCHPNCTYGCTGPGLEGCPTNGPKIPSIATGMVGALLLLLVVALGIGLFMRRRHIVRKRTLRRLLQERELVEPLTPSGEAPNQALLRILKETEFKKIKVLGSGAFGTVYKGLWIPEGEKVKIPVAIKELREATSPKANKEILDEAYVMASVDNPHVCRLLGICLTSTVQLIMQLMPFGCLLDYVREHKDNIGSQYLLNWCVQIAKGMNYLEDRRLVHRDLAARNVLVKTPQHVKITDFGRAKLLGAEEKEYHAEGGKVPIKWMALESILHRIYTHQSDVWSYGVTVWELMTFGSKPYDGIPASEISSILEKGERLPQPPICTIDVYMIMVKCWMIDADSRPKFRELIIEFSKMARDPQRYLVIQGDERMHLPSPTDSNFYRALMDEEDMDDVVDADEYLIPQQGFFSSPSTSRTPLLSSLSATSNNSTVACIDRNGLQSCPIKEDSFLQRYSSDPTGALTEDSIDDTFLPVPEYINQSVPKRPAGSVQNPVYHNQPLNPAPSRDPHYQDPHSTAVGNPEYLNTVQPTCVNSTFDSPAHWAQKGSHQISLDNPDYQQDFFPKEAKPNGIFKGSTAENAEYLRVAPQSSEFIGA
- PROCEDURE_SUMMARY: Inhibition of human partial length EGFR (R669 to V1011 residues) L858R/T790M mutant expressed in mammalian expression system by KINOMEscan analysis
pIC50: −log10 of the molar value.
pIC50: recorded values
PARAMETER_MEASURED: pIC50

{"columns": ["SMILES_STRING", "MEAS_VALUE"],
 "data": [
  ["C=CC(=O)Nc1cccc(Nc2nc(Nc3ccc(N(C)C)cc3)nc3ccc(Cl)cc23)c1", 5.74],
  ["C=CC(=O)Nc1cccc(Nc2nc(Nc3ccc(N4CCN(C)CC4)cc3)nc3ccc(F)cc23)c1", 8.46]
]}

###

- MEASUREMENT_TARGET: Tyrosine-protein kinase Tec (Homo sapiens, UniProt P42680)
- Sequence (P42680 whole entry): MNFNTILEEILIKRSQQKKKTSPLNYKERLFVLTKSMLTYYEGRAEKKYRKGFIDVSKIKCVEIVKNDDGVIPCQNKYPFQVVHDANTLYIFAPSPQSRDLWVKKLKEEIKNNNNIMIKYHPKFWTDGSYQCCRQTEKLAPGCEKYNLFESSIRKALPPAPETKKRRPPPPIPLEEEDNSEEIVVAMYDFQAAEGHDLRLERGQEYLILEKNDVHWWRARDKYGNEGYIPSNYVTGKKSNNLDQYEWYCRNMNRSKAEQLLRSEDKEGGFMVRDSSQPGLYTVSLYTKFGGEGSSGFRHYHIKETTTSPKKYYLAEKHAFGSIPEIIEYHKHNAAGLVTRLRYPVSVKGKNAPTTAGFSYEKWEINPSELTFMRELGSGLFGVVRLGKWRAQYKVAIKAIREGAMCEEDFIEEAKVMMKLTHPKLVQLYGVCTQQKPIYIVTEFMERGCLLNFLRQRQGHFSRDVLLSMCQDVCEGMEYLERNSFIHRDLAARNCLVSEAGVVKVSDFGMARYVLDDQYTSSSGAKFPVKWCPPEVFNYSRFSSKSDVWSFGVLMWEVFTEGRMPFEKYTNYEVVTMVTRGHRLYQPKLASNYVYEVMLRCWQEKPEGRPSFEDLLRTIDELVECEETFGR

{"columns": ["SMILES_STRING", "MEASUREMENT_TARGET", "UNIT", "IC50"],
 "data": [
  ["C=CC(=O)Nc1cccc(Nc2nc(Nc3ccc(N4CCN(C)CC4)cc3)nc3ccc(F)cc23)c1", "Tyrosine-protein kinase Tec (Homo sapiens, UniProt P42680)", "nM", 518]
]}

###

- PROCEDURE_SUMMARY: Cytotoxicity against human A-431 cells harboring wild type EGFR assessed as reduction in cell viability measured after 72 hrs by MTT assay
- Assay type: toxicity, cell-based
So basically: is IC50 at 72 h under 6 µM? Then true (1). Not under? Then false (0).

{"columns": ["SMILES_STRING", "LABEL_CLASS"],
 "data": [
  ["C=CC(=O)Nc1cccc(Nc2nc(Nc3ccc(C4CCN(C)CC4)cc3)nc3ccc(Cl)cc23)c1", "false (0)"],
  ["C=CC(=O)Nc1cccc(Nc2nc(Nc3ccc(N4CCN(C)CC4)cc3)nc3cc(F)ccc23)c1", "false (0)"],
  ["C=CC(=O)Nc1cccc(Nc2nc(Nc3ccc(N4CCN(C)CC4)cc3)nc3c(Cl)cccc23)c1", "false (0)"],
  ["C=CC(=O)Nc1cccc(Nc2nc(Nc3ccc(N4CCN(C)CC4)cc3)nc3cccc(Cl)c23)c1", "true (1)"],
  ["C=CC(=O)Nc1cccc(Nc2nc(Nc3ccc(N4CCC(N5CCOCC5)CC4)cc3OC)nc3ccc(Cl)cc23)c1", "false (0)"],
  ["C=CC(=O)Nc1cccc(Nc2nc(Nc3ccc(N4CCC(N(C)C)CC4)cc3OC)nc3ccc(Cl)cc23)c1", "true (1)"],
  ["C=CC(=O)Nc1cccc(Nc2nc(Nc3ccc(N4CCN(C)CC4)cc3)nc3ccc(I)cc23)c1", "false (0)"],
  ["C=CC(=O)Nc1cccc(Nc2nc(Nc3ccc(N4CCN(C)CC4)cc3)nc3ccccc23)c1", "false (0)"],
  ["C=CC(=O)Nc1cccc(Nc2nc(Nc3ccc(N4CCN(C)CC4)cc3OC)nc3ccc(F)cc23)c1", "true (1)"],
  ["C=CC(=O)Nc1cccc(Nc2nc(Nc3ccc(N4CCC(N5CCOCC5)CC4)cc3OC)nc3ccc(F)cc23)c1", "false (0)"],
  ["C=CC(=O)Nc1cccc(Nc2nc(Nc3ccc(N4CCN(C)CC4)cc3)nc3c2CCN(C(=O)OC(C)(C)C)C3)c1", "false (0)"],
  ["C/C=C/C(=O)Nc1cccc(Nc2nc(Nc3ccc(N4CCN(C)CC4)cc3)nc3ccc(Cl)cc23)c1", "true (1)"],
  ["C=CC(=O)Nc1cccc(Nc2nc(Nc3ccc(N4CCN(C)CC4)cc3)nc3cc(Cl)ccc23)c1", "false (0)"],
  ["C=CC(=O)Nc1cccc(Nc2nc(Nc3ccc(N4CCN(C)CC4)cc3)nc3cc(OC)ccc23)c1", "false (0)"],
  ["C=CC(=O)Nc1cccc(Nc2nc(Nc3ccc(N(C)CCN(C)C)cc3OC)nc3ccc(F)cc23)c1", "false (0)"],
  ["C=CC(=O)Nc1cccc(Nc2nc(Nc3ccc(N4CCN(C)CC4)cc3)nc3c2CCCC3)c1", "true (1)"],
  ["C=CC(=O)Nc1cccc(Nc2nc(Nc3ccc(N4CCN(CC)CC4)cc3)nc3ccc(F)cc23)c1", "true (1)"]
]}

###

- MEASUREMENT_TARGET: Epidermal growth factor receptor (Homo sapiens, UniProt P00533)
IC50: recorded values

{"columns": ["SMILES_STRING", "MEASUREMENT_TARGET", "MODIFIER_SIGN", "IC50 [µM]"],
 "data": [
  ["C=CC(=O)Nc1cccc(Nc2nc(Nc3ccc(N(C)C)cc3)nc3ccc(Cl)cc23)c1", "Epidermal growth factor receptor (Homo sapiens, UniProt P00533)", ">", 10],
  ["C=CC(=O)Nc1cccc(Nc2nc(Nc3ccc(N4CCN(C)CC4)cc3)nc3ccc(F)cc23)c1", "Epidermal growth factor receptor (Homo sapiens, UniProt P00533)", "=", 1.29]
]}

###

- PROCEDURE_SUMMARY: Cmax in Sprague-Dawley rat at 1 mg/kg, iv by LC-MS analysis
- Format: ADME, organism-based
- Set-up: dose 1 mg/kg, route iv
- EXPERIMENTAL_PARAMETERS: in vivo

{"columns": ["SMILES_STRING", "Cmax (ng/mL)"],
 "data": [
  ["C=CC(=O)Nc1cccc(Nc2nc(Nc3ccc(N4CCN(C)CC4)cc3)nc3ccc(F)cc23)c1", 650]
]}

###

- MEASUREMENT_TARGET: wild type EGFR (Homo sapiens, UniProt P00533)
- Sequence (P00533 whole entry, the tested form may be a part): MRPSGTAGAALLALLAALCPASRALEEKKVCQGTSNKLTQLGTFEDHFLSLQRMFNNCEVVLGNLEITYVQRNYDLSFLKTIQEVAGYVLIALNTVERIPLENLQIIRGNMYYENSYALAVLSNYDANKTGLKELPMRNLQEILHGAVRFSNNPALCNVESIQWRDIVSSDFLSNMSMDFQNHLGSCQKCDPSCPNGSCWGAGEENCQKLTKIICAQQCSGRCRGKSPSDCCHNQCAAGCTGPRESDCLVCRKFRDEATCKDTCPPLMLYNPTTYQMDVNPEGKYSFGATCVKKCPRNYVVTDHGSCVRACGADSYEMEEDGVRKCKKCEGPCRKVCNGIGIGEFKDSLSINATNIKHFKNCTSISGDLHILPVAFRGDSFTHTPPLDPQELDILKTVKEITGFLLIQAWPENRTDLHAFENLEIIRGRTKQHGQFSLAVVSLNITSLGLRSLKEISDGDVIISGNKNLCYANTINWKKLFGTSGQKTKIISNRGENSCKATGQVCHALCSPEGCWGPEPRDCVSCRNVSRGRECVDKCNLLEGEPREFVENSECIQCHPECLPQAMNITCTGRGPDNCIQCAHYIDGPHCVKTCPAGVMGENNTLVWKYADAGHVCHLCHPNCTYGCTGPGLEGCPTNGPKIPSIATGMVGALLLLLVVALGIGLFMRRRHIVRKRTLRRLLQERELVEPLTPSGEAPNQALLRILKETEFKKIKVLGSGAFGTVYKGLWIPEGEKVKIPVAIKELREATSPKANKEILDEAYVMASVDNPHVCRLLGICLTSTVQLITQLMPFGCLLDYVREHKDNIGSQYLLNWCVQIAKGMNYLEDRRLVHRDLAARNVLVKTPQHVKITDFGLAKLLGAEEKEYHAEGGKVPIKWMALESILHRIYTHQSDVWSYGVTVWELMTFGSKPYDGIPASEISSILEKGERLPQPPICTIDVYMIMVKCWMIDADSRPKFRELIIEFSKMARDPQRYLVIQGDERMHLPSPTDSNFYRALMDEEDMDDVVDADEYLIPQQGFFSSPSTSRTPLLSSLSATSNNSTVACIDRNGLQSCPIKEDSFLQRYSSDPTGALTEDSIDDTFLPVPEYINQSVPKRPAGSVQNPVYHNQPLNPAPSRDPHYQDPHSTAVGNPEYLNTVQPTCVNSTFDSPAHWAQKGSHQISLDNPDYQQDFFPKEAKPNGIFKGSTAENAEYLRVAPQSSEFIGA
- PROCEDURE_SUMMARY: Inhibition of human wild type partial length EGFR (R669 to V1011 residues) expressed in bacterial expression system assessed as residual activity at 1 uM by KINOMEscan analysis
- Format: toxicity
- EXPERIMENTAL_PARAMETERS: read-out: Activity
PARAMETER_MEASURED: activity at 1 µM (%)

{"columns": ["SMILES_STRING", "PARAMETER_MEASURED", "MEAS_VALUE"],
 "data": [
  ["C=CC(=O)Nc1cccc(Nc2nc(Nc3ccc(N4CCN(C)CC4)cc3)nc3ccc(F)cc23)c1", "activity at 1 µM", 96]
]}

###

- PROCEDURE_SUMMARY: Cytotoxicity against human A549 cells harboring wild type EGFR assessed as reduction in cell viability measured after 72 hrs by MTT assay
- Format: toxicity, cell-based
IC50 at 72 h: recorded values
PARAMETER_MEASURED: IC50 at 72 h (µM)

{"columns": ["SMILES_STRING", "UNIT", "MODIFIER_SIGN", "MEAS_VALUE"],
 "data": [
  ["C=CC(=O)Nc1cccc(Nc2nc(Nc3ccc(N(C)CCN(C)C)cc3)nc3ccc(Cl)cc23)c1", "µM", "=", 2.3],
  ["C=CC(=O)Nc1cccc(Nc2nc(Nc3ccc(N4CCN(C)CC4)cc3)nc3ccc(Br)cc23)c1", "µM", "=", 8.71],
  ["CN1CCN(c2ccc(Nc3nc(Nc4cccc(NC(=O)/C=C/c5ccccc5)c4)c4cc(Cl)ccc4n3)cc2)CC1", "µM", ">", 10],
  ["C=CC(=O)Nc1cccc(Nc2nc(Nc3ccc(C4CCN(C)CC4)cc3)nc3ccc(F)cc23)c1", "µM", "=", 5.86],
  ["C=CC(=O)Nc1cccc(Nc2nc(Nc3ccc(N4CCN(C)CC4)cc3)nc3cccc(Cl)c23)c1", "µM", "=", 3.88],
  ["C=CC(=O)Nc1cccc(Nc2nc(Nc3ccc(N4CCN(C)CC4)cc3)nc3cc(OC)ccc23)c1", "µM", ">", 10],
  ["C=CC(=O)Nc1cccc(Nc2nc(Nc3ccc(N4CCN(C)CC4)c(F)c3)nc3ccc(F)cc23)c1", "µM", "=", 2.47],
  ["C=CC(=O)Nc1ccc(Nc2nc(Nc3ccc(N4CCN(C)CC4)cc3)nc3ccc(Cl)cc23)cc1", "µM", ">", 10],
  ["C=CC(=O)Nc1cccc(Nc2nc(Nc3ccc(N4CCC(N5CCOCC5)CC4)cc3)nc3ccc(Cl)cc23)c1", "µM", ">", 10],
  ["C=CC(=O)Nc1cccc(Nc2nc(Nc3ccc(N(C)C)cc3)nc3ccc(Cl)cc23)c1", "µM", ">", 10],
  ["C=CC(=O)Nc1cccc(Nc2nc(Nc3ccc(N4CCC(N5CCN(C)CC5)CC4)cc3)nc3ccc(F)cc23)c1", "µM", "=", 1.52],
  ["C=CC(=O)Nc1cccc(Nc2nc(Nc3ccc(N4CCC(N5CCN(C)CC5)CC4)cc3)nc3ccc(Cl)cc23)c1", "µM", "=", 2.1],
  ["C=CC(=O)Nc1cccc(Nc2nc(Nc3ccc(N4CCN(C)CC4)cc3)nc3cccc(F)c23)c1", "µM", "=", 2.31],
  ["C=CC(=O)Nc1cccc(Nc2nc(Nc3ccc(N4CCN(C)CC4)cc3)nc3ccc(C(F)(F)F)cc23)c1", "µM", ">", 10],
  ["C=CC(=O)Nc1ccccc1Nc1nc(Nc2ccc(N3CCN(C)CC3)cc2)nc2ccc(Cl)cc12", "µM", ">", 10],
  ["C=CC(=O)Nc1cccc(Nc2nc(Nc3ccc(N4CCN(C)CC4)cc3OC)nc3ccc(F)cc23)c1", "µM", "=", 1.52],
  ["C=CC(=O)Nc1cccc(Nc2nc(Nc3ccc(N4CCN(C)CC4)cc3)nc3c(Cl)cccc23)c1", "µM", ">", 10],
  ["C=CC(=O)Nc1cccc(Nc2nc(Nc3ccc(N4CCN(C)CC4)cc3)nc3ccc([N+](=O)[O-])cc23)c1", "µM", ">", 10],
  ["C=CC(=O)Nc1cccc(Nc2nc(Nc3ccc(N4CCN(C)CC4)cc3)nc3c2CN(C(=O)OC(C)(C)C)CC3)c1", "µM", ">", 10],
  ["C=CC(=O)Nc1cccc(Nc2nc(Nc3ccc(N4CCN(C)CC4)cc3)nc3ccc(OC)cc23)c1", "µM", "=", 3.99],
  ["C=CC(=O)Nc1cccc(Nc2nc(Nc3ccc(N4CCN(C)CC4)cc3)nc3ccc(F)cc23)c1", "µM", "=", 4.02],
  ["C=CC(=O)Nc1cccc(Nc2nc(Nc3ccc(N4CCN(C)CC4)cc3)nc3ccc(Cl)cc23)c1", "µM", "=", 0.816],
  ["CCC(=O)Nc1cccc(Nc2nc(Nc3ccc(N4CCN(C)CC4)cc3)nc3ccc(Cl)cc23)c1", "µM", ">", 10],
  ["C=CS(=O)(=O)Nc1cccc(Nc2nc(Nc3ccc(N4CCN(C)CC4)cc3)nc3ccc(Cl)cc23)c1", "µM", ">", 10],
  ["C=CC(=O)Nc1cccc(Nc2nc(Nc3ccc(N4CCC(N5CCOCC5)CC4)cc3)nc3ccc(F)cc23)c1", "µM", "=", 5.9],
  ["C=CC(=O)Nc1cccc(Nc2nc(Nc3ccc(N4CCN(C)CC4)cc3)nc3ccccc23)c1", "µM", "=", 9.85],
  ["C=CC(=O)Nc1cccc(Nc2nc(Nc3ccc(N4CCOCC4)cc3)nc3ccc(Cl)cc23)c1", "µM", ">", 10],
  ["C=CC(=O)Nc1cccc(Nc2nc(Nc3ccc(N4CCC(N(C)C)CC4)cc3OC)nc3ccc(Cl)cc23)c1", "µM", "=", 3.59],
  ["C=CC(=O)Nc1cc(Nc2nccc(-c3cn(C)c4ccccc34)n2)c(OC)cc1N(C)CCN(C)C", "µM", "=", 0.682],
  ["C=CC(=O)Nc1cccc(Nc2nc(Nc3ccc(N4CCN(C)CC4)cc3)nc3c2CCN(C(=O)OCc2ccccc2)C3)c1", "µM", ">", 10],
  ["C=CC(=O)Nc1cccc(Nc2nc(Nc3ccc(N4CCC(N(C)C)CC4)cc3OC)nc3ccc(F)cc23)c1", "µM", ">", 10],
  ["C=CC(=O)Nc1cccc(Nc2nc(Nc3ccc(N(C)CCN(C)C)cc3)nc3ccc(F)cc23)c1", "µM", "=", 2.57],
  ["C=CC(=O)Nc1cccc(Nc2nc(Nc3ccc(N4CCN(C)CC4)cc3OC)nc3ccc(Cl)cc23)c1", "µM", "=", 3.52],
  ["C=CC(=O)Nc1cccc(Nc2nc(Nc3ccc(N4CCC(N5CCN(C)CC5)CC4)cc3OC)nc3ccc(Cl)cc23)c1", "µM", ">", 10]
]}
